B1: TPR t1 (parent)
chain: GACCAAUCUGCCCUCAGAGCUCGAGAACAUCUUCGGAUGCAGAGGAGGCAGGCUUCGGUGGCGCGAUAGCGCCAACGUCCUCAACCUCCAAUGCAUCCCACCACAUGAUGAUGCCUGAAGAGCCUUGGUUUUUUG

Variants of: B1
test_summary: polymerase ribozyme fitness, log enrichment relative to wild type (log ratio); higher = more active; in vitro selection for triplet polymerase activity
Would you kindly list polymerase ribozyme fitness (log ratio) for each of these variants?

Consider the reported polymerase ribozyme fitness (log ratio) for these variants:
>>> result("C49A U78A G117C G128A U131C U133G")
-6.98
>>> result("C22U C34U A83C C124G")
-5.96
>>> result("G44A C72G C80U C101U")
-2.59
>>> result("A111G G113U U129G U131A")
-6.64
>>> result("A16C C56U G69U G120A")
-3.38

Would you mind listing polymerase ribozyme fitness (log ratio) for each of the following variants?
1. A90U G110U
2. C12A C20U A26C G48A C49A A121G U133A
3. C13G C64U
4. A6C C72G A108G C115U
5. C34A G113U
6. U14A A37U G93U U132A
7. A5U U9A G48U C49G C101A

# output
1. -3.55
2. -5.75
3. -0.666
4. -4.82
5. -5.39
6. -4.47
7. -1.73
